Entries annotated with measured EC50
- experimental system: T1, A138 iCAPS (CB1 with ICL3 native sequence replaced with protein 1 sequence) (human, UniProt P21554 99-414)
- T1 construct: The insert stands inside the chain in place of ICL3
- T1 sequence (P21554 whole entry): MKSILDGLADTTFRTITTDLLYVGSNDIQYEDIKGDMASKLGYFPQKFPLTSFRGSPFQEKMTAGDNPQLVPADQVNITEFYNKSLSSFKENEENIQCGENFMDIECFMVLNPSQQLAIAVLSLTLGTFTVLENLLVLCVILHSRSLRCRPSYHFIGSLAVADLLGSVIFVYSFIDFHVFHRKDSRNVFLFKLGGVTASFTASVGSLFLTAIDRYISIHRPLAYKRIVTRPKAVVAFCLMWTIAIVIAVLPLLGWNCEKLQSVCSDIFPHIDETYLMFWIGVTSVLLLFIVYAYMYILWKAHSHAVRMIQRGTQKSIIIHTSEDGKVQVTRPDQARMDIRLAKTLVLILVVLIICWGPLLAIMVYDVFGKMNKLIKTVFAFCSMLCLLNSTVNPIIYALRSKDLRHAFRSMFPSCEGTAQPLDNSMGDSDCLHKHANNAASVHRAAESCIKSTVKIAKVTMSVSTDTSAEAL
- protocol description: ELISA, purified IgG on A138 CB1 iCAPS
Give the value, in units of nM, as a plain number.

Return reported EC50; argument: PA2LR3-P4B5 (chimeric) (antibody, human IgG1, kappa, V domains shown) VH: EVQLQQSGAELVRPGSSVKISCKASGYAFSYYWMNWVKQRPGQGLEWIGQIYPGDGDTNYSGRFKGKATLTADKSSSTAYIQLSSLTSEDSAVYFCARSHGNYFPYWGQGTLVTVSA VL: DIVLNQSPAIMSASLGERVTMTCTASSSVSSSYLHWYQQKPGSSPKLWIYSTSNLASGVPARFSGSGSGTSYSLTISSMEAEDAATYYCHQYHRSPLTFGAGTKLEIKR
0.24

Consider now this further binder.
Return reported EC50; argument: PA13R3-P1C4 (chimeric) IgG (antibody, V domains shown, Phage-derived mouse variable regions on human constant regions; also called Chimeric P1C4-IgG; PA13R3-P1C4 IgG) VH: EVQLQQSGAELVRPGVSVKISCKASGYEFSYYWMNWVKQRPGQGLEWIGQIYPGDGETKYNGKFKGKATLTADKSSNTAYMQLSSLTSEDSAVYFCARSHGNYLPYWGQGTLVTVSA VL: DIVLTQSPAIMSASLGERVTMTCTASSSVSSSYLHWYQQKPGSSPKLWIYSTSNLASGVPARFSGSGSGTSYSLTISSMEAEDAATYYCHQYHRSPPTFGAGTKLELKR
0.172

Taken from patent US20260176352A1.
